measured quantity: melting point

The examples below pair each entry with its known result.
Cc1ccc(C(=O)N/N=C/c2c(Cl)ccc(Cl)c2O)c(O)c1 | 248 to 254 °C
Cc1ccc(C(=O)N/N=C/c2cc(Cl)cc(C(F)(F)F)c2O)c(O)c1 | 252 to 254 °C
O=C(N/N=C/c1cccc(C(F)(F)F)c1O)c1cccc([N+](=O)[O-])c1 | 215 to 217 °C

Request: Fill in: melting point of C/C(=N\NC(=O)c1cccc(Cl)c1)c1cc(F)cc(F)c1O is ___
Result: 279 to 282 °C

Request: Fill in: melting point of O=C(N/N=C/c1cccc(C(F)(F)F)c1O)c1cccc(F)c1 is ___
Result: 176 to 180 °C

Request: Fill in: melting point of COc1ccc(O)c(/C(C)=N/NC(=O)c2ccccc2Cl)c1 is ___
Result: 170 to 184 °C

Request: Fill in: melting point of C/C(=N\NC(=O)c1ccc(Br)cc1)c1cc(Cl)ccc1O is ___
Result: 269 to 271 °C

Request: Fill in: melting point of O=C(N/N=C/c1cc(Cl)cc(Br)c1O)c1ccc(C(F)(F)F)cc1 is ___
Result: 250 to 251 °C

Request: Fill in: melting point of C/C(=N\NC(=O)c1ccc(C)cc1)c1cc(C(F)(F)F)ccc1O is ___
Result: 225 to 229 °C

Request: Fill in: melting point of C/C(=N\NC(=O)c1ccccc1Br)c1ccc(Cl)cc1O is ___
Result: 187 to 188 °C
